# target.under.test: hKCNQ2/3 (Homo sapiens, UniProt O43525+O43526)
# Sequence (O43526 whole entry): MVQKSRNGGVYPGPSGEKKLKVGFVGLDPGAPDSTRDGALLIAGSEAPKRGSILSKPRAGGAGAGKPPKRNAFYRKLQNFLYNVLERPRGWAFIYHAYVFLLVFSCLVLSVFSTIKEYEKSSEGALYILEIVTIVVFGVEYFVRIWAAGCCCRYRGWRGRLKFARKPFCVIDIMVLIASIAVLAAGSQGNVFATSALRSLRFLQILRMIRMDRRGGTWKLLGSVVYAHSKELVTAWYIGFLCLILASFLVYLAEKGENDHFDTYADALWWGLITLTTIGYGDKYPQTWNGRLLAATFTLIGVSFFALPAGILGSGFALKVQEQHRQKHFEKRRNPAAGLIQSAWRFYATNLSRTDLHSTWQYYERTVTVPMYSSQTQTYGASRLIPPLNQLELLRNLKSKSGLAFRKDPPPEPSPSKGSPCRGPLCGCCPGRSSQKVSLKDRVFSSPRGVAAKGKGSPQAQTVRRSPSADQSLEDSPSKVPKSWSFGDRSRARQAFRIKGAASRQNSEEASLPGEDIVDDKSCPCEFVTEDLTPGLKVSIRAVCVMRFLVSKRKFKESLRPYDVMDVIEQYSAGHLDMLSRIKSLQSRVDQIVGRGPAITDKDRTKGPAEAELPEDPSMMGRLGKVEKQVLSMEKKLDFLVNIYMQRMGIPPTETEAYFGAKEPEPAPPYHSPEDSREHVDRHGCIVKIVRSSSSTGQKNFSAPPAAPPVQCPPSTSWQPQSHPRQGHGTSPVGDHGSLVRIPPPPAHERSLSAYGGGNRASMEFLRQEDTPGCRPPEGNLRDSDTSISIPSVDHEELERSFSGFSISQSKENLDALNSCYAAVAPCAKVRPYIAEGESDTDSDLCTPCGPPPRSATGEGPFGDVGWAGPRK
# Sequence (O43525 whole entry): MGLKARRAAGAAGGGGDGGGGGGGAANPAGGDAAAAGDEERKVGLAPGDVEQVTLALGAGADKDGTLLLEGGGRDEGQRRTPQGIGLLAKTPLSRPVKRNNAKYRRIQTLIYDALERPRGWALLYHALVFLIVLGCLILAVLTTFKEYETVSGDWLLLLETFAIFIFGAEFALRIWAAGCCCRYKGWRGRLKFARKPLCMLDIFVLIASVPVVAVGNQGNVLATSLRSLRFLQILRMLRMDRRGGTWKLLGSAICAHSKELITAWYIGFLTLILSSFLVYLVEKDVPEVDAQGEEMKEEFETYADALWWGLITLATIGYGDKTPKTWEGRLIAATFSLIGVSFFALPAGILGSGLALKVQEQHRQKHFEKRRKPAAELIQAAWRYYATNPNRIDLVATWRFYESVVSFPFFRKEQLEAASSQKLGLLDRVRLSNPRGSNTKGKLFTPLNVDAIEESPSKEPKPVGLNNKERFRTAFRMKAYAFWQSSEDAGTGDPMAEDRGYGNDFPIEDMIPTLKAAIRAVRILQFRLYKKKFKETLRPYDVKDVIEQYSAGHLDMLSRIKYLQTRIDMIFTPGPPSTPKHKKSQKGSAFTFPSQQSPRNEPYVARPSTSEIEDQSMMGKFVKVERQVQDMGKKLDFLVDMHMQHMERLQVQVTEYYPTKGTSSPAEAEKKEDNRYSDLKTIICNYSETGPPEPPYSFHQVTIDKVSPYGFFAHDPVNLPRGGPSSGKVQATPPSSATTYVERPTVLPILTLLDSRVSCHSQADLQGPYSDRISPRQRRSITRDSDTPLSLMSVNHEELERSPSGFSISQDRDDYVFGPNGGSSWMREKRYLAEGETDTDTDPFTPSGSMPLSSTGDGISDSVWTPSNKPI
# assay.explanation: Fluorescence assay using a voltage-sensitive dye (fluorimetry)
# Assay type: cell-based
# Design: expressed in transfected cells; host or cells: CHO-K1
# stated.conditions: 1 μM; relative to retigabine = 100%; CHO-K1 cells expressing KCNQ2/3; read-out: Fluorimetry % Efficacy @ 1 μM (Retigabine = 100%)
metric.name: Emax at 1 µM (%)
// return numeric value only (unit: %, not printed)

[
  {
    "compound": "Cc1ccccc1C1c2ccccc2CCN1C(=O)CCC(=O)NCc1ccc(C(F)(F)F)cc1 (stereo not shown)",
    "target.under.test": "hKCNQ2/3 (Homo sapiens, UniProt O43525+O43526)",
    "Emax at 1 µM (%)": 56
  }
]

get_value(item= CC1Cc2ccccc2C(c2ccccc2)N1C(=O)CCC(=O)NCc1cccc(C(F)(F)F)c1 (stereo not shown) , readout=Emax at 1 µM) returns 29

get_value(item= O=C(CCC(=O)N1CCc2ccccc2C1c1cccs1)NCc1cccc(C(F)(F)F)c1 (stereo not shown) , readout=Emax at 1 µM) returns 76

###

# target.under.test: hKCNQ2/3 (Homo sapiens, UniProt O43525+O43526)
# assay.explanation: Fluorescence assay using a voltage-sensitive dye (fluorimetry)
# Type: cell-based
# Set-up: expressed in transfected cells; host or cells: CHO-K1
# stated.conditions: CHO-K1 cells expressing KCNQ2/3
In this section we review reported pEC50 values for a set of compounds.
// scale note: pEC50 = -log10(conc_M); give the bare number

# example entries with known answers
[
  {
    "compound": "CC1CN(C(=O)CCC(=O)NCc2cccc(C(F)(F)F)c2)C(c2ccccc2)c2ccccc21 (stereo not drawn)",
    "pEC50": 6.94
  },
  {
    "compound": "Cc1ccccc1C1c2ccccc2CCN1C(=O)CCC(=O)NCc1ccc(C(F)(F)F)cc1 (stereo not drawn)",
    "pEC50": 6.83
  },
  {
    "compound": "CC1c2ccccc2CCN1C(=O)CCC(=O)NCc1cccc(C(F)(F)F)c1 (stereo not drawn)",
    "pEC50": 4.98
  },
  {
    "compound": "O=C(CCC(=O)N1CCc2c(F)cccc2C1c1ccccc1)NCc1cccc(C(F)(F)F)c1 (stereo not drawn)",
    "pEC50": 7.12
  },
  {
    "compound": "Cc1ccccc1C1c2ccccc2CCN1C(=O)CCC(=O)NCc1ccccc1C(F)(F)F (stereo not drawn)",
    "pEC50": 6.80
  }
]

# input for lookup
get_value(item= CC1(C)CN(C(=O)CCC(=O)NCc2cccc(C(F)(F)F)c2)C(c2ccccc2)c2ccccc21 (stereo not drawn) , readout=pEC50) returns 6.87

###

# target.under.test: hKCNQ2/3 (Homo sapiens, UniProt O43525+O43526)
# assay.explanation: Fluorescence assay using a voltage-sensitive dye (fluorimetry)
# Format: cell-based
# Design: expressed in transfected cells; host or cells: CHO-K1
# stated.conditions: 1 μM; relative to retigabine = 100%; CHO-K1 cells expressing KCNQ2/3; read-out: Fluorimetry % Efficacy @ 1 μM (Retigabine = 100%)
Classify as follows. Reported Emax at 1 µM greater than or equal to 60%: Y. Reported Emax at 1 µM below: N.

Record excerpt, results attached:
[
  {
    "compound": "COc1cccc2c1CCN(C(=O)CCC(=O)NCc1cccc(C(F)(F)F)c1)C2c1ccccc1 (stereo not shown) [Example compound 12]",
    "target.under.test": "hKCNQ2/3 (Homo sapiens, UniProt O43525+O43526)",
    "class.assignment": "N"
  },
  {
    "compound": "O=C(CCC(=O)N1CCc2c(F)cccc2C1c1ccccc1)NCc1cccc(C(F)(F)F)c1 (stereo not shown) [Example compound 6]",
    "target.under.test": "hKCNQ2/3 (Homo sapiens, UniProt O43525+O43526)",
    "class.assignment": "Y"
  },
  {
    "compound": "O=C(CCC(=O)N1CCc2ccccc2C1c1ccccc1)NCc1ccc(C(F)(F)F)cc1 (stereo not shown) [Example compound 8]",
    "target.under.test": "hKCNQ2/3 (Homo sapiens, UniProt O43525+O43526)",
    "class.assignment": "Y"
  },
  {
    "compound": "Cc1ccccc1C1c2ccccc2CCN1C(=O)CCC(=O)NCc1cccc(C(F)(F)F)c1 (stereo not shown) [Example compound 67]",
    "target.under.test": "hKCNQ2/3 (Homo sapiens, UniProt O43525+O43526)",
    "class.assignment": "Y"
  },
  {
    "compound": "CC1(C)CN(C(=O)CCC(=O)NCc2cccc(C(F)(F)F)c2)C(c2ccccc2)c2ccccc21 (stereo not shown) [Example compound 10]",
    "target.under.test": "hKCNQ2/3 (Homo sapiens, UniProt O43525+O43526)",
    "class.assignment": "N"
  },
  {
    "compound": "O=C(CCC(=O)N1CCc2ccccc2C1c1ccncc1)NCc1cccc(C(F)(F)F)c1 (stereo not shown) [Example compound 4]",
    "target.under.test": "hKCNQ2/3 (Homo sapiens, UniProt O43525+O43526)",
    "class.assignment": "N"
  }
]

API: the following record is the query input.
IN: Check this compound for Emax at 1 µM at or above 60%: O=C(CCC(=O)N1CCc2ccccc2C1c1ccccc1)NCc1ccccc1C(F)(F)F (stereo not shown) [Example compound 7]
OUT: N

Values from patent US8367700B2
